- study-system: glucocorticoid receptor (Rattus norvegicus)
- Construct: from tissue; host or cells: liver cytosol of male Sprague-Dawley rats
- Sequence (P06536 whole entry): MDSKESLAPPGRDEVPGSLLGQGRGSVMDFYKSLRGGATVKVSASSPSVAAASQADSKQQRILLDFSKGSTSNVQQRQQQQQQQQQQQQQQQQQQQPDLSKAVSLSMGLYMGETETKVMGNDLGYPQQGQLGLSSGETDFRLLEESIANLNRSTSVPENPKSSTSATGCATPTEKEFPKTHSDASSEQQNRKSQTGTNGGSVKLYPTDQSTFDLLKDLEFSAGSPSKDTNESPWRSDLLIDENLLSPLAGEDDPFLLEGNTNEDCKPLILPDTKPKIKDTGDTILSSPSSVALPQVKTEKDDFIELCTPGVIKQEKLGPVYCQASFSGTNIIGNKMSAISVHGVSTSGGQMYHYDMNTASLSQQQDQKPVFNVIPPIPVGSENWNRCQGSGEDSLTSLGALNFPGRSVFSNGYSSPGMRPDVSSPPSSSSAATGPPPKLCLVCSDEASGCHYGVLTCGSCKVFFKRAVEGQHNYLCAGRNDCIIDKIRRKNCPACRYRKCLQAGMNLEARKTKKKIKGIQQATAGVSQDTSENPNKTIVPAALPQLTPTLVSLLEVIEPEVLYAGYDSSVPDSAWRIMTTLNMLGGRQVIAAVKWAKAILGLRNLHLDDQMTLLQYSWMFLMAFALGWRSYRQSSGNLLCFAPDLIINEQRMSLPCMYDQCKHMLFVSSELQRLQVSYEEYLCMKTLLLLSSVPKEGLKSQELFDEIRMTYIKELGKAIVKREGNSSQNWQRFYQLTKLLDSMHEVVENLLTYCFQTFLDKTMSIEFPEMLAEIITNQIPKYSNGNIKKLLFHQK
- assay: Glucocorticoid receptor assay: inhibition of [3H]-dexamethasone binding, liver cytosol
- conditions: E^−6
Each entry below carries its recorded % Inhibition Glucocorticoid Receptor E^−6.
Respond with a number, then the unit of measure.

Reference set, count: 3
CC(C)C[C@@H]1CC2C3C=CC4=CC(=O)CC[C@]4(C)C3CC[C@]2(C)C1=O (stereo partly shown) [EM-1273-CS] = 1%
CCC[C@]1(F)CC2C3C=CC4=CC(=O)CC[C@]4(C)C3CC[C@]2(C)C1=O (stereo partly shown) [EM-1183] = 12%
CC12C=CC(=O)C=C1C=CC1C2CCC2(C)C(=O)C3(CCCCC3)CC12 (stereo not shown) [CS-204] = 0%

Task item: What measured % Inhibition Glucocorticoid Receptor E^−6 goes with CCC[C@@H]1CC2C3C=CC4=CC(=O)CC[C@]4(C)C3CC[C@]2(C)C1=O (stereo partly shown) [EM-1097] ?
Reply: 0%

* * *

- study-system: androgen receptor (Rattus norvegicus, UniProt P15207)
- Construct: from tissue; host or cells: ventral prostate cytosol of gonadectomized male Sprague-Dawley rats
- Sequence (P15207 1-902): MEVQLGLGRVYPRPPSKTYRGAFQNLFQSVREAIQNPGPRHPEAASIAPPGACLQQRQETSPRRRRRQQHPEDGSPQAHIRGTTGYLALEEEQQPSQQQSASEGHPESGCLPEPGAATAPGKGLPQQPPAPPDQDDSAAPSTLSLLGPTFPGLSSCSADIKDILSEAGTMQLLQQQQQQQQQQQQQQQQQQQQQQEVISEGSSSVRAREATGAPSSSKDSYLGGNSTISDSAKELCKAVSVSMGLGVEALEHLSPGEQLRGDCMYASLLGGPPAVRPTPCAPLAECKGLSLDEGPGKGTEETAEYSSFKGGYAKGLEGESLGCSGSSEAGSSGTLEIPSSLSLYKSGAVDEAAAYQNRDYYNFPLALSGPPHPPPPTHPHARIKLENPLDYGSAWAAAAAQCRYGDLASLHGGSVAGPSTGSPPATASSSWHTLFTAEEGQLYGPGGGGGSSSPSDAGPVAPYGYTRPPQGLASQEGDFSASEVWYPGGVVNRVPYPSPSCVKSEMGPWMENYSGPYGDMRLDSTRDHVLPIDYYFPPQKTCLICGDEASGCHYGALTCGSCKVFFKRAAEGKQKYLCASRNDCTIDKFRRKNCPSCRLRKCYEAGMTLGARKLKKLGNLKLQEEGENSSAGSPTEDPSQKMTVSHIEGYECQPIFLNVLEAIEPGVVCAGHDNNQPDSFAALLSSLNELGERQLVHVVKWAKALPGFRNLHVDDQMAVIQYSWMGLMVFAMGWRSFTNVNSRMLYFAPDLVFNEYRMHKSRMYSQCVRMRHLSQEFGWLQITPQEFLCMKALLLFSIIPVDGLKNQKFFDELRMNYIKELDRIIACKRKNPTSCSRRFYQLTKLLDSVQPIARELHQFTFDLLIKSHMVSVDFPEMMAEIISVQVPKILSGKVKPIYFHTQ
- assay: Androgen receptor (AR) assay: inhibition of [3H]R1881 binding, prostate cytosol
- conditions: E^−6
measure-name: % Inhibition Androgen Receptor (%)
The answer is to be given in %; state only the numeric part.

COc1ccc(CC(=O)O[C@]2(C(C)=O)CCC3C4C=C(C)C5=CC(=O)C=C[C@]5(C)C4CC[C@@]32C)cc1 (stereo partly shown) [EM-1291] = 0
COC(=O)CCCC(=O)O[C@]1(C(C)=O)CC[C@H]2[C@@H]3C=C(C)C4=CC(=O)CC[C@]4(C)[C@H]3CC[C@@]21C [EM-1007] = 0
CCCC(=O)OC1(C(C)=O)CCC2C3C=C(C)C4=CC(=O)CC(C)C4(C)C3CCC21C (stereo not shown) [CS-245] = 71
CC(=O)[C@@]1(OC(=O)CCCCF)CCC2C3C=C(C)C4=CC(=O)CC[C@]4(C)C3CC[C@@]21C (stereo partly shown) [EM-1195-CS] = 62
CCCCN(C)C(=O)[C@@]1(OC(C)=O)CCC2C3C=C(C)C4=CC(=O)CC[C@]4(C)C3CC[C@@]21C (stereo partly shown) [EM-1165] = 1
CCC(=O)O[C@]1(C(C)=O)CCC2C3C=C(C)C4=CC(=O)C[C@H](C)[C@]4(C)C3CC[C@@]21C (stereo partly shown) [CS-243] = 33

Task item: What measured % Inhibition Androgen Receptor goes with CC(=O)O[C@]1(C(=O)N(C)C)CCC2C3C=C(C)C4=CC(=O)CC[C@]4(C)C3CC[C@@]21C (stereo partly shown) [EM-1159] ?
Reply: 1
